Assign IC90 to each entry below.
system: M. tuberculosis H37Rv growth inhibition; assay: Mycobacterium tuberculosis H37Rv growth inhibition, putative kinase inhibitor library, confirmatory dose response (AID 2842);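 further: bacteria incubated one week before Alamar blue readout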

Req: Query: IC90; subject: Cc1ccc(Nc2nc(N3CCN(c4ccc(F)cc4)CC3)nc3nccnc23)cc1C
Resp: 22.8 µg/mL

Req: // IC90 lookup, key: CCc1cccc2sc(N(CCCn3ccnc3)C(=O)c3cc(OC)cc(OC)c3)nc12
Resp: 10.7 µg/mL

Req: May I ask what IC90 has been recorded for O=C(Nc1nnc(-c2ccc(Cl)s2)o1)C1CC1 ?
Resp: 26.8 µg/mL

Req: Can you share its IC90? I mean this compound: O=C(Nc1nnc(-c2ccc(F)cc2)o1)c1ccco1
Resp: 2.84 µg/mL

Req: Given the compound CCOC(=O)c1cc(NC(=O)Nc2ccc(Cl)c(Cl)c2)c(C)nc1C , what is its reported IC90?
Resp: 12.4 µg/mL

Req: Fill in: IC90 of N#Cc1ccc(C(=O)Nc2nnc(-c3cccnc3)o2)cc1 is ___
Resp: 53.3 µg/mL

Req: Entry CCc1cccc2sc(N(CCCn3ccnc3)C(=O)c3cccs3)nc12 has what IC90?
Resp: 0.34 µg/mL

Req: Entry Cc1ccc(Cn2c(N3CCN(Cc4cccc5ccccc45)CC3)nc3c2c(=O)[nH]c(=O)n3C)cc1 : reported IC90 = ?
Resp: 25.4 µg/mL

Req: If you can, please state the reported IC90 value of Cc1ccc(-c2nnc(NC(=O)c3cc([N+](=O)[O-])ccc3Cl)o2)c(C)c1 .
Resp: 1.57 µg/mL

Req: Endpoint output: IC90 of Cc1ccc(-c2nnc(NC(=O)c3ccccc3F)o2)c(C)c1 . Value?
Resp: 1.31 µg/mL

Req: # IC90 lookup, item O=C(Nc1cccc(C(F)(F)F)c1)NC1CC(=O)N(c2ccc(F)cc2)C1 (stereo unspecified)
Resp: 13.2 µg/mL

* * *

Assignment: determine reported IC90 for the given molecules.
system: M. tuberculosis H37Rv growth inhibition; test: Mycobacterium tuberculosis H37Rv growth inhibition, putative kinase inhibitor library, confirmatory dose response (AID 2842);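 further: bacteria incubated one week before Alamar blue readout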

Req: Name the reported IC90 value associated with the molecule O=C(Nc1nnc(-c2ccc(Cl)cc2)o1)c1ccc([N+](=O)[O-])o1
Resp: 0.26 µg/mL

Req: Consider the molecule shown here: CCCCCOc1ccc(C(=O)Nc2nnc(-c3ccccn3)o2)cc1 What is its recorded IC90?
Resp: 2.15 µg/mL

Req: Returns the measured IC90 for the input molecule. Input: Cc1ccc(C)c(-c2nnc(NC(=O)c3ccccc3F)o2)c1
Resp: < 0.2 µg/mL

Req: Can you look up the measured IC90 of COc1cc2c3nnc(-c4ccc(Cl)cc4)c-3cn(Cc3ccccc3F)c2cc1OC for me?
Resp: 22.2 µg/mL

Req: Entry under review: Cc1ccc(S(=O)(=O)CCCC(=O)Nc2nc3c(Cl)c(Cl)ccc3s2)cc1 . Reported IC90?
Resp: 3.41 µg/mL

Req: I would be grateful if you could share the reported IC90 for O=C(Nc1nnc(-c2cc(Cl)ccc2Cl)o1)c1ccc(S(=O)(=O)N2CCCC2)cc1 .
Resp: 25.6 µg/mL

Req: So what does the record say about IC90 for Cc1ccc(C)c2[nH]c(=O)c(CCNC(=S)NCCn3ccc4ccccc43)cc12 ?
Resp: 3.53 µg/mL

Req: Requested read-out: IC90. Entry: OCCOCCNc1nc(Nc2cccc(F)c2)nc2c1cnn2-c1ccccc1
Resp: 4.91 µg/mL

Req: I have this molecule here, C=CCOC(=O)COc1ccc2c(-c3cc4ccccc4oc3=O)cc(=O)oc2c1 , and I need its recorded IC90.
Resp: 4.35 µg/mL

Req: Dear colleague, I am looking for the recorded IC90 of the following molecule: COc1ccc(OC)c(NC(=O)c2cc3cc(Cl)ccc3oc2=O)c1
Resp: 0.77 µg/mL

Req: Look up IC90 for this molecule: CCCCN1C(=O)c2cccc3c(NC(=O)c4ccc([N+](=O)[O-])s4)ccc1c23
Resp: 22.7 µg/mL

Req: What IC90 value was documented for this molecule, CCOc1ccc2nc(SC3CC(=O)N(c4ccc(N5CCCCC5)cc4)C3=O)sc2c1 (stereo not given) ?
Resp: 24.8 µg/mL

Req: Which value of IC90 has been reported for Cc1ccc(C(=O)Nc2nnc(-c3ccncc3)o2)cc1 in the records?
Resp: 13.4 µg/mL

Req: Quick one: IC90 of CC(O)CNc1ncnc2c1cnn2-c1ccc(Cl)c(Cl)c1 (stereo not given) ?
Resp: 12.5 µg/mL

Req: Returns the measured IC90 for the input molecule. Input: CN(C)c1ccc(C(=O)Nc2nnc(C3=COCCO3)o2)cc1
Resp: 9.01 µg/mL

Req: IC90 lookup needed for Cc1cc(C)cc(Nc2nc(Nc3ccc(F)cc3)nc(N3CCOCC3)n2)c1 , thanks.
Resp: 11.1 µg/mL

Req: Name the recorded IC90 for Cc1ccc(-c2nnc(NC(=O)c3ccccc3Cl)o2)c(C)c1 .
Resp: < 0.2 µg/mL

Req: What value of measured IC90 is listed for CCOc1ccc2nc(N3CCCC3)sc2c1 ?
Resp: 17.2 µg/mL

Req: Quick one: IC90 for O=C(COc1ccccc1)Nc1nnc(-c2ccc3c(c2)CCCC3)o1 ?
Resp: 6.48 µg/mL

Req: Dear colleague, I am looking for the recorded IC90 of the following molecule: CCOC(CNc1ncnc2c1cnn2-c1ccc(C)c(C)c1)OCC
Resp: 21.8 µg/mL

Req: Request the reported IC90 associated with Cc1ccc(Nc2nc(Nc3cccc(F)c3)nc(N3CCOCC3)n2)cc1C
Resp: 13.5 µg/mL

Req: Suppose we examine the molecule COC(=O)c1ccc(CSc2nnc(-c3ccncc3)o2)o1 ; what IC90 value has been reported?
Resp: 5.77 µg/mL

Req: I am curious: what IC90 value has been reported for OCc1cn(-c2ccccc2)nc1-c1ccc(F)cc1 ?
Resp: 6.38 µg/mL

Req: Given COc1cccc(-c2nnc(NC(=O)c3ccc(Cl)s3)o2)c1 , state its recorded IC90.
Resp: < 0.2 µg/mL

Req: Entry under review: CCOC(=O)N1CCN(c2ncnc3c2cnn3-c2ccc(C)c(C)c2)CC1 . Reported IC90?
Resp: 9.11 µg/mL

Req: If you can, please state the reported IC90 value of CC(C)N1CCc2c(sc(NC(=O)c3ccc(S(=O)(=O)N(C)c4ccccc4)cc3)c2C(N)=O)C1 .
Resp: 12.8 µg/mL

Req: Bench note: what IC90 did Cc1ccc(-n2nnc3c(SCC(=O)N4CCOCC4)ncnc32)cc1 show?
Resp: 12.3 µg/mL

Req: What value of IC90 has been recorded for this entry: Cc1ccc(C)c(-c2nnc(NC(=O)c3ccc(OC(C)C)cc3)o2)c1
Resp: 33.4 µg/mL

Req: Entry under review: Cc1ccc(-c2nnc(NC(=O)C3CCCCC3)o2)c(C)c1 . Reported IC90?
Resp: 8.75 µg/mL

Req: Recorded IC90 for Cc1ccc(-c2nnc(NC(=O)c3ccc(Cl)cc3Cl)o2)c(C)c1 , please?
Resp: 4.12 µg/mL

Req: Recorded IC90 for O=C(N=Nc1c(O)[nH]c2ccccc12)c1cc(-c2cccc(OCc3ccccc3)c2)n[nH]1 , please?
Resp: 20.2 µg/mL

Req: Consider the molecule shown here: O=c1c2[nH]c3ccccc3c2nc(SCCN2CCCCC2)n1-c1ccccc1F What is its recorded IC90?
Resp: 14.6 µg/mL

Req: Return reported IC90; argument: Cc1cccc2sc(NNC(=O)c3cccc(F)c3)nc12
Resp: 9.09 µg/mL

Req: Please report the recorded IC90 for CC1Cc2cc(-c3nn(-c4ccccc4)cc3/C=C3\SC(=S)NC3=O)ccc2O1 (stereo not given) .
Resp: 1.79 µg/mL

Req: Reported IC90 for N=c1nnc2c3ccccc3ccc2n1O : what is it?
Resp: 41.3 µg/mL

Req: Give its IC90 value. Item: Cc1cc(NCCCn2ccnc2)n2ncc(-c3ccccc3)c2n1
Resp: 3.12 µg/mL

Req: Given COc1ccc(-c2nnc3c4ccccc4n(Cc4cccc(C)c4)cc2-3)cc1 , state its recorded IC90.
Resp: 13.4 µg/mL

Req: Entry under review: Cc1ccc(-c2nnc3c4cc5c(cc4n(Cc4ccccc4F)cc2-3)OCCO5)cc1C . Reported IC90?
Resp: 6.25 µg/mL

Req: I have this molecule here, CSc1nc2ccc3nc(NC(=O)c4cc5ccccc5oc4=O)sc3c2s1 , and I need its recorded IC90.
Resp: 26.1 µg/mL

Req: Which IC90 is reported for this molecule? O=C(CCOc1ccccc1)Nc1nnc(-c2ccc(Cl)s2)o1
Resp: 13.9 µg/mL

Req: Reported IC90 for O=C(Nc1ccc(I)cc1)c1ccc([N+](=O)[O-])s1 : what is it?
Resp: < 0.2 µg/mL

Req: Record request: IC90 value, item CC(C)(C)C(=O)Nc1nnc(-c2cc(Cl)ccc2Cl)o1
Resp: < 0.2 µg/mL

Req: # lookup: IC90 of CCc1ccc(OCC(=O)Nc2ccc(OC)cc2)cc1
Resp: 12.7 µg/mL

Req: What does the record list as IC90 for Cc1cc(NC2CCCCC2)n2ncc(-c3ccccc3)c2n1 ?
Resp: 10.6 µg/mL

Req: Reported IC90, molecule CCOC(=O)c1cnc2ccc(OCC)cc2c1Nc1cccc(C)c1 : ____
Resp: 14.1 µg/mL
